Consider the following compounds and their measured fluorescence ratio readings.
- Procedure Text: fluorescence interference in NS3h assay format, artefact control for HCV NS3 helicase inhibitor project, biochemical, NIH Clinical Collection (AID 743272);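 also: HCV NS3 helicase with a Cy5 labelled single stranded DNA probe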
- Experimental Conditions: fluorescence interference counterscreen, stronger effect = lower value
The source made the active and inactive calls. No rule for the calls is given here.

INSERT INTO results (compound, experimental_readout, meas_value) VALUES
  ('CN1C(=O)CN=C(c2ccccc2)c2cc(Cl)ccc21', 'fluorescence ratio', '1.02 (inactive)'),
  ('CC1CCC[C@H](O)CCCCCc2cc(O)cc(O)c2C(=O)O1 (some centres not stated)', 'fluorescence ratio', '0.99 (inactive)'),
  ('CCN(C(C)=O)c1cccc(-c2ccnc3c(C#N)cnn23)c1', 'fluorescence ratio', '0.98 (inactive)'),
  ('CC(NC(C)(C)C)C(=O)c1cccc(Cl)c1 (configuration not stated)', 'fluorescence ratio', '1 (inactive)'),
  ('Cc1ccc(-c2nc3ccc(C)cn3c2CC(=O)N(C)C)cc1', 'fluorescence ratio', '1.01 (inactive)');

Q: Return reported fluorescence ratio; argument: C[C@]12CC(=CO)C(=O)C[C@@H]1CC[C@@H]1[C@@H]2CC[C@@]2(C)[C@H]1CC[C@]2(C)O
Ans: 1.01 (inactive)

Q: # lookup: fluorescence ratio of CCN(CC)CCOC(=O)C(O)(c1ccccc1)c1ccccc1
Ans: 0.98 (inactive)

----------
Listed compounds paired with reported period change
- Procedure Text: circadian clock period modulators, cell-based, LOPAC library, luminescence reporter (AID 2774);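 also: values are relative to mean of DMSO wells on each plate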
- Experimental Conditions: circadian reporter cells, at 7 µM, actives lie on both sides
The source made the active and inactive calls. The rule behind the calls is not given here.

These recorded examples may help you get a feel for the data.
INSERT INTO measurements (compound, meas_value) VALUES
  ('COc1ccc2[nH]cc(CCN)c2c1', '-0.125 h (inactive)'),
  ('CCCN(CCC)C1CCc2cccc(O)c2C1 (stereo not drawn)', '-0.07 h (inactive)');

Q: Which period change is reported for this compound? COC(=O)[C@@H](N)CCCN=C(N)N[N+](=O)[O-]
Ans: -0.07 h (inactive)

Q: // lookup period change for CCCN1CC[C@@H]2c3cc(O)ccc3CC[C@@H]21
Ans: -0.045 h (inactive)

Q: Look up period change: C[N+]1(C)CCN(c2ccccc2)CC1
Ans: -0.125 h (inactive)

Q: I have this compound here, O=C(O)Cc1cnc[nH]1 , and I need its recorded period change.
Ans: 0.01 h (inactive)

Q: Query: period change; subject: COc1ccc2c(c1)[C@@]13CCCC[C@H]1[C@@H](C2)NCC3
Ans: -0.085 h (inactive)

----------
- Procedure Text: rescue of polyQ-huntingtin neuronal dysfunction in worms, whole organism, C. elegans mechanosensory neurons, N-terminal huntingtin (AID 1599)
- Experimental Conditions: touch response, stronger effect = higher value
Entries with a potency or affinity are not part of this list.
Use rescue above control to assign classes; range list: Low (below -4), Medium (-4 to below 3), High (3 or more)

INSERT INTO measurements (compound, classification) VALUES
  ('CNC(C)C(=O)c1ccccc1 (stereo unspecified)', 'Low');

Q: For COC(=O)C1C(OC(=O)c2ccccc2)CC2CCC1N2C (stereo unspecified) , which rescue above control bin applies?
Ans: Low

Q: Please let me know in which category the item CCC(C)C(=O)O[C@H]1[C@H](O)C2C(CN3CC(C)CCC3[C@@]2(C)O)C2C[C@]34O[C@]5(O)C(OC(=O)C(C)(O)CC)CC[C@@]3(C)C5C(OC(C)=O)[C@@H](OC(C)=O)C4[C@@]21O (stereo partly specified) belongs.
Ans: Medium

Q: Into which bin does this compound go? CC(C)CC(NC(=O)C(Cc1ccccc1)NC(=O)CNC(=O)CNC(=O)C(N)Cc1ccc(O)cc1)C(=O)O (stereo unspecified)
Ans: High

Q: Pick a category. Item: C=C[C@H]1CN2CC[C@H]1C[C@@H]2[C@@H](OC(=O)OCC)c1ccnc2ccc(OC)cc12
Ans: High

Q: Pick a category. Item: CC(C)(C)NCC(O)c1cc(Cl)c(N)c(Cl)c1 (stereo unspecified)
Ans: Medium

Q: Entry N[C@@H](Cc1ccc(N(CCCl)CCCl)cc1)C(=O)O belongs to which category?
Ans: Medium

Q: Dear colleague, I would appreciate it if you could identify the bin for COc1ccc2c(c1)[C@]13CCCC[C@H]1[C@H](C2)N(C)CC3 and reply at your convenience.
Ans: Medium

Q: Input CCCCCc1cc(O)c2c(c1)OC(C)(C)c1ccc(C)cc1-2 ; output its category
Ans: High

Q: Class? Entry: COc1ccc(C[C@H]2NC[C@H](O)[C@H]2OC(C)=O)cc1
Ans: High

Q: Class? Entry: Oc1ccc2c3c1OC1[C@@H](O)CC[C@@]4(O)[C@@H](C2)N(CC2CCC2)CC[C@]314 (stereo partly specified)
Ans: Low

Q: Bin this entry: C=C(C)[C@H]1Cc2c(ccc3c2O[C@@H]2COc4cc(OC)c(OC)cc4[C@@H]2C3=O)O1
Ans: Medium

Q: Assign a bin to C=CCN1CC[C@]23c4c5ccc(O)c4OC2C(=O)CC[C@@]3(O)[C@H]1C5 (stereo partly specified)
Ans: Low

Q: Bin? CN1C2CCC1C(C(=O)O)C(OC(=O)c1ccccc1)C2 (stereo unspecified)
Ans: Low

Q: For this compound, which bin applies? Cc1cccc(C)c1NC1=NCCCS1
Ans: Medium

Q: Band for the recorded rescue above control of Oc1cccc2cccnc12 ?
Ans: High

Q: Would you mind sorting COC(=O)C1=CCCN(C)C1 into the appropriate category?
Ans: High

Q: Form field 'band' for CN1CCc2cc3c(cc2[C@H]1[C@@H]1OC(=O)c2c1ccc1c2OCO1)OCO3
Ans: High

Q: Bin this entry: Cc1cc2c(C(C)C)c(O)c(O)c(C=O)c2c(O)c1-c1c(C)cc2c(C(C)C)c(O)c(O)c(C=O)c2c1O
Ans: Medium

Q: Record O=C1C=C2C(=CCOC2O)O1 (stereo unspecified) — which class?
Ans: Low

----------
cytochrome c release ratio for assorted molecules
- Procedure Text: inhibitors of mitochondrial cytochrome c release, biochemical, purified mitochondria (AID 1603);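 also: mouse liver mitochondria challenged with calcium chloride; signal normalized to the plate average as 100%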
- Experimental Conditions: stronger effect = lower value
Enter the number alone.

INSERT INTO measurements (molecule, meas_value) VALUES
  ('CO[C@H]1[C@H](O)[C@H](O[C@H]2CC[C@]3(C)C4CC[C@]5(C)C(C6=CC(=O)OC6)CC[C@]5(O)C4CC[C@@H]3C2)O[C@@H](C)[C@@H]1O (some centres not stated)', 0.83),
  ('CNC(C)Cc1ccc2c(c1)OCO2 (configuration not stated)', 0.84);

Q: # query: cytochrome c release ratio of entry O=C1Nc2ccc(Cl)cc2C(c2ccccc2)=NC1O (configuration not stated)
Ans: 1.14

Q: cytochrome c release ratio for Cc1cc2c(C(C)C)c(O)c(O)c(C=O)c2c(O)c1-c1c(C)cc2c(C(C)C)c(O)c(O)c(C=O)c2c1O ?
Ans: 0.19

Q: // returns reported cytochrome c release ratio for input COC12CC[C@@]3(C[C@@H]1C(C)(O)C(C)(C)C)[C@H]1Cc4ccc(O)c5c4[C@@]3(CCN1CC1CC1)[C@H]2O5 (some centres not stated)
Ans: 1.25

----------
- Procedure Text: liver-stage malaria parasite growth inhibition, primary screen, cell-based, HepG2, luciferase luminescence, HepG2 viability (AID 624349);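 also: 100% = mean of DMSO negative control wells on the same plate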
- Experimental Conditions: P. berghei liver stage in HepG2, luciferase luminescence, concentration not given here; measured here: HepG2 viability without parasites
Note to self: use MET only for viability readings below 70%; a reading exactly at 70% still gets NOT MET.

Some solved cases for reference:
INSERT INTO assay_data (molecule, classification) VALUES
  ('CCCCCCCCCCNCCC (tested in a mixture with another compound)', 'NOT MET'),
  ('S=C=NCc1ccccc1', 'NOT MET'),
  ('c1cncc(C2CCCN2)c1 (configuration not stated)', 'NOT MET'),
  ('C=C(C)C1CNC(C(=O)O)C1CC(=O)O (configuration not stated)', 'NOT MET');

Q: Identify whether the molecule CC(=O)O[C@H]1C[C@H](O[C@H]2[C@@H](O)C[C@H](O[C@H]3[C@@H](O)C[C@H](O[C@H]4CC[C@@]5(C)[C@H](CC[C@]6(C)[C@]5(C)C[C@@H](O)[C@]5(C)[C@@H](C7=CC(=O)OC7)CC[C@@]56O)C4)O[C@@H]3C)O[C@@H]2C)O[C@H](C)[C@H]1O[C@@H]1O[C@H](CO)[C@@H](O)[C@H](O)[C@H]1O records viability below 70%.
Ans: MET

Q: In the record for CN(C)[C@@H]1C(=O)C(C(N)=O)=C(O)[C@@]2(O)C(=O)C3=C(O)c4c(O)ccc(Cl)c4[C@@](C)(O)C3C[C@@H]12 (some centres not stated) , is viability less than 70%?
Ans: MET

Q: Quick check: viability of C=C(C)CN1CC[C@]23c4c5ccc(O)c4O[C@H]2c2[nH]c4ccccc4c2C[C@@]3(O)C1C5 under 70%?
Ans: MET

Q: Is 70% strictly greater than the molecule's reported viability? molecule: C[C@]12CC[C@H]3[C@@H](CCC4=CC(=O)CC[C@@]43C)[C@@H]1CC[C@@H]2O
Ans: NOT MET

Q: Does the reported viability of C[C@]12CCC(=O)C(O)=C1CC[C@@H]1[C@@H]2CC[C@]2(C)C(=O)CC[C@@H]12 stay below 70%?
Ans: NOT MET
